molecular target: UniProtKB Q07343
value_kind: IC50 (nM)

- structure_as_smiles: "CC1(C)Cc2c(c(N3CCOCC3)nc3sc4c(NCCN5CCCCC5)ncnc4c23)CO1"
  value_kind: "IC50"
  unit: "nM"
  experimental_value: 284
- structure_as_smiles: "CC1(C)CCc2c(N3CCCC3)nc3sc4c(NCCN5CCOCC5)ncnc4c3c2C1"
  value_kind: "IC50"
  unit: "nM"
  experimental_value: 8.05

P = CC1(C)CCc2c(-c3ccoc3)nc3sc4c(NCCN5CCOCC5)ncnc4c3c2C1
Q = CC1(C)Cc2c(c(N3CCOCC3)nc3sc4c(N(CCN5CCOCC5)Cc5cccnc5)ncnc4c23)CO1
Query block: Of P and Q , which carries the smaller reported IC50 figure? Identify your pick by its label.
Result block: P
(P: 2.9 nM, Q: 4.5 nM)

1 = CC1(C)Cc2c(c(N3CCOCC3)nc3sc4c(NCc5ccncc5)ncnc4c23)CO1
2 = CN1CCN(c2nc3sc4c(NCCN5CCOCC5)ncnc4c3c3c2CCC(C)(C)C3)CC1
3 = CN1Cc2c(N3CCOCC3)nc3sc4c(NCCN5CCOCC5)ncnc4c3c2CC1(C)C
4 = CNc1nc2sc3c(NCCN4CCOCC4)ncnc3c2c2c1CCC(C)(C)C2
Query block: Order each entry by recorded IC50, climbing from the minimum. Please respond by ranking the labels in the order requested.
Result block: 4, 1, 2, 3
(4: 9.9 nM, 1: 22 nM, 2: 95 nM, 3: 3700 nM)

###

system: Blood; assay: Antiinflammatory activity against LPS-induced TNFalpha production in human whole blood by ELISA; type: functional, tissue-based
value_kind: IC50 (nM)

- molecule: "CC1(C)Cc2c(c(N3CCOCC3)nc3sc4c(NCc5cccnc5)ncnc4c23)CO1"
  IC50 [nM]: 639
- molecule: "CN(C)c1nc2sc3c(NCCN4CCOCC4)ncnc3c2c2c1COC(C)(C)C2"
  IC50 [nM]: 261
- molecule: "CC1(C)CCc2c(N3CCOCC3)nc3sc4c(NCc5ccncc5)ncnc4c3c2C1"
  IC50 [nM]: 2040
- molecule: "CC1(C)Cc2c(c(N3CCOCC3)nc3sc4c(N(CCO)CCN5CCOCC5)ncnc4c23)CO1"
  IC50 [nM]: 537
- molecule: "CC1(C)CCc2c(N3CCOCC3)nc3sc4c(N(CCO)CCN5CCOCC5)ncnc4c3c2C1"
  IC50 [nM]: 327
- molecule: "CC1(C)CCc2c(-c3ccco3)nc3sc4c(NCCN5CCOCC5)ncnc4c3c2C1"
  IC50 [nM]: 1090
- molecule: "CC1(C)CCc2c(N3CCOCC3)nc3sc4c(NCCCN5CCCC5=O)ncnc4c3c2C1"
  IC50 [nM]: 2150
- molecule: "CC1(C)CCc2c(-c3ccoc3)nc3sc4c(NCCN5CCOCC5)ncnc4c3c2C1"
  IC50 [nM]: 1240

P = CC1(C)CCc2c(N3CCOCC3)nc3sc4c(NCCN5CCOCC5)ncnc4c3c2C1
Q = CC1(C)CCc2c(N3CCOCC3)nc3sc4c(NCc5cccnc5)ncnc4c3c2C1
Query block: Of P and Q , which carries the smaller reported IC50 figure? Identify your pick by its label.
Result block: Q
(Q: 381 nM, P: 1370 nM)

I = CNc1nc2sc3c(NCCN4CCOCC4)ncnc3c2c2c1CCC(C)(C)C2
II = CCC1(C)Cc2c(c(N3CCOCC3)nc3sc4c(NCCN5CCOCC5)ncnc4c23)CO1 (stereo unspecified)
III = COc1ccccc1CNc1ncnc2c1sc1nc(N3CCOCC3)c3c(c12)CC(C)(C)OC3
IV = CC1(C)Cc2c(c(N3CCOCC3)nc3sc4c(N(CCN5CCOCC5)Cc5cccnc5)ncnc4c23)CO1
V = CN1Cc2c(N3CCOCC3)nc3sc4c(NCCN5CCOCC5)ncnc4c3c2CC1(C)C
Query block: Order each entry by recorded IC50, climbing from the minimum. Please respond by ranking the labels in the order requested.
Result block: I, IV, III, II, V
(I: 233 nM, IV: 401 nM, III: 1190 nM, II: 2040 nM, V: 3270 nM)

P = CC1(C)Cc2c(c(N3CCOCC3)nc3sc4c(NCCN5CCOCC5)ncnc4c23)CO1
Q = CC1(C)Cc2c(c(N3CCOCC3)nc3sc4c(NCc5ccncc5)ncnc4c23)CO1
R = CC1(C)CCc2c(N3CCCC3)nc3sc4c(NCCN5CCOCC5)ncnc4c3c2C1
S = COc1ccc(C2CNC(=O)C2)cc1OC1CCCC1 (stereo unspecified)
Query block: Order each entry by recorded IC50, climbing from the minimum. Please respond by ranking the labels in the order requested.
Result block: P, R, Q, S
(P: 235 nM, R: 655 nM, Q: 1020 nM, S: 1480 nM)

###

experiment: Apparent permeability from apical to basolateral side of human Caco-2 cells; format: ADME, cell-based
value_kind: Papp A→B (×10⁻⁶ cm/s)

- structure_as_smiles: "CN(C)c1nc2sc3c(NCCN4CCOCC4)ncnc3c2c2c1COC(C)(C)C2"
  Papp A→B [×10⁻⁶ cm/s]: 21.9

a = CC(C)Cc1nc2sc3c(NCCN4CCOCC4)ncnc3c2c2c1CCC(C)(C)C2
b = CNc1nc2sc3c(NCCN4CCOCC4)ncnc3c2c2c1CCC(C)(C)C2
Query block: Of a and b , which carries the smaller reported Papp A→B figure? Identify your pick by its label.
Result block: a

###

pIC50: −log10 of the molar value.
As a worked illustration, we turn to pIC50 data collected for 3',5'-cyclic-AMP phosphodiesterase 4D (Homo sapiens).
value_kind: pIC50

Consider the worked cases shown below.
- structure_as_smiles: "CC1(C)CCc2c(N3CCCC3)nc3sc4c(NCCN5CCOCC5)ncnc4c3c2C1"
  experimental_value: 7.96
- structure_as_smiles: "CC1(C)Cc2c(c(N3CCOCC3)nc3sc4c(NCc5ccncc5)ncnc4c23)CO1"
  experimental_value: 6.89
- structure_as_smiles: "CC1(C)CCc2c(-c3ccoc3)nc3sc4c(NCCN5CCOCC5)ncnc4c3c2C1"
  experimental_value: 8.51
- structure_as_smiles: "Cc1nc2sc3c(NCCN4CCOCC4)ncnc3c2c2c1CCC(C)(C)C2"
  experimental_value: 7.47
- structure_as_smiles: "CN(C)c1nc2sc3c(NCCN4CCOCC4)ncnc3c2c2c1COC(C)(C)C2"
  experimental_value: 7.60

a = CC1(C)CCc2c(N3CCOCC3)nc3sc4c(NCc5ccncc5)ncnc4c3c2C1
b = CC1(C)Cc2c(c(N3CCOCC3)nc3sc4c(NCc5cccnc5)ncnc4c23)CO1
Query block: Parameter check: reported pIC50 is higher for which label, a or b ? Identify your pick by its label.
Result block: a
(a: 7.89, b: 7.28)

I = CC1(C)CCc2c(N3CCOCC3)nc3sc4c(NCCCN5CCCC5=O)ncnc4c3c2C1
II = CC1(C)Cc2c(c(N3CCOCC3)nc3sc4c(N(CCO)CCN5CCOCC5)ncnc4c23)CO1
Query block: Of I and II , which carries the smaller reported pIC50 figure? Identify your pick by its label.
Result block: I
(I: 7.21, II: 7.41)

###

target: 3',5'-cyclic-AMP phosphodiesterase 4B (Homo sapiens)
Sequence (Q07343 whole entry): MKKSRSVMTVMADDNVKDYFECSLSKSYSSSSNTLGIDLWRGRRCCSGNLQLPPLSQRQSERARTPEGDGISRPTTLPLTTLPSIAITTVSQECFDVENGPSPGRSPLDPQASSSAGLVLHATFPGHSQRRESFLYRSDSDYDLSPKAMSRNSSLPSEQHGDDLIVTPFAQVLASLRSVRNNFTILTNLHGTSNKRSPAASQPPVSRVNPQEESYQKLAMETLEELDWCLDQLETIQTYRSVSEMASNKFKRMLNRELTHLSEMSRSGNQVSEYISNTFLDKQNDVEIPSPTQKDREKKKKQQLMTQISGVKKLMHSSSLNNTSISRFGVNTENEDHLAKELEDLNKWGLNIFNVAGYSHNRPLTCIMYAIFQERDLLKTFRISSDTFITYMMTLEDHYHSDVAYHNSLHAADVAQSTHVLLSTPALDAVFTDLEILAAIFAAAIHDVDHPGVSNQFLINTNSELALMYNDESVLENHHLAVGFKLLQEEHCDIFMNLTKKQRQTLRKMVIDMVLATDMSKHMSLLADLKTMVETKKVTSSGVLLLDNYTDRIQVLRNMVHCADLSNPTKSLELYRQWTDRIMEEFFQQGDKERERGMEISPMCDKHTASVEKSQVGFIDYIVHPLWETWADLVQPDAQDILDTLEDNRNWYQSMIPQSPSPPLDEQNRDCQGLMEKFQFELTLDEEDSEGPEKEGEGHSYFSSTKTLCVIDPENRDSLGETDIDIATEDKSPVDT
pIC50: −log10 of the molar value.
value_kind: pIC50

- structure_as_smiles: "COc1ccccc1CNc1ncnc2c1sc1nc(N3CCOCC3)c3c(c12)CC(C)(C)OC3"
  pIC50: 7.40

P = CC1(C)CCc2c(N3CCOCC3)nc3sc4c(NCCCN5CCCC5=O)ncnc4c3c2C1
Q = Cc1nc2sc3c(NCCN4CCOCC4)ncnc3c2c2c1CCC(C)(C)C2
R = CC1(C)Cc2c(c(N3CCOCC3)nc3sc4c(NCc5cccnc5)ncnc4c23)CO1
Query block: Parameters: sort_field (pIC50), sort_dir (desc). Please respond by ranking the labels in the order requested.
Result block: R, P, Q
(R: 8.24, P: 7.68, Q: 7.43)

###

As a worked illustration, we turn to IC50 data collected for 3',5'-cyclic-AMP phosphodiesterase 4A (Homo sapiens).
value_kind: IC50 (nM)

- structure_as_smiles: "CC1(C)Cc2c(c(N3CCOCC3)nc3sc4c(N(CCN5CCOCC5)Cc5cccnc5)ncnc4c23)CO1"
  IC50 (nM): 5
- structure_as_smiles: "CC1(C)CCc2c(-c3ccco3)nc3sc4c(NCCN5CCOCC5)ncnc4c3c2C1"
  IC50 (nM): 5.4
- structure_as_smiles: "CNc1nc2sc3c(NCCN4CCOCC4)ncnc3c2c2c1CCC(C)(C)C2"
  IC50 (nM): 18

1 = CN(C)c1nc2sc3c(NCCN4CCOCC4)ncnc3c2c2c1COC(C)(C)C2
2 = CC1(C)CCc2c(N3CCOCC3)nc3sc4c(NCCN5CCOCC5)ncnc4c3c2C1
3 = CC1(C)CCc2c(N3CCOCC3)nc3sc4c(N(CCO)CCN5CCOCC5)ncnc4c3c2C1
Query block: Order each entry by recorded IC50, climbing from the minimum. Please respond by ranking the labels in the order requested.
Result block: 3, 1, 2
(3: 6.4 nM, 1: 20 nM, 2: 74 nM)

a = CC(C)Cc1nc2sc3c(NCCN4CCOCC4)ncnc3c2c2c1CCC(C)(C)C2
b = COc1ccccc1CNc1ncnc2c1sc1nc(N3CCOCC3)c3c(c12)CC(C)(C)OC3
Query block: Of a and b , which carries the smaller reported IC50 figure? Identify your pick by its label.
Result block: a
(a: 6.7 nM, b: 67 nM)
